Tested on: SUP-B15 (B-Lymphoblastic Leukemia)
Assay: combination Emax (second highest fraction inhibited in the dose matrix, 72 h); higher = more inhibition; extreme values may be limits of the assay
Measurement kind: combination Emax
# output: bare number, no unit

For orientation, consider the following solved cases.
[[record]]
molecule = "CN(C)CCCOc1ccc(-c2ccc3ncc4c(c3c2)n(C2CCOCC2)c(=O)n4C)cn1 [AZD0156] + C=CCn1c(=O)c2cnc(Nc3ccc(N4CCN(C)CC4)cc3)nc2n1-c1cccc(C(C)(C)O)n1 [AZD1775] (first compound max 1 µM, partner max 1 µM)"
measurement_kind = "combination Emax"
meas_value = 0.602

[[record]]
molecule = "COc1cc2ncnc(Nc3ccc(F)c(Cl)c3)c2cc1OCCCN1CCOCC1 [Gefitinib] + CC(C)n1c(=O)n(C)c2cnc3cc(F)c(-c4ccc(OCCCN5CCCCC5)nc4)cc3c21 [AZD1390] (first compound max 10 µM, 7x7, partner max 0.3 µM)"
measurement_kind = "combination Emax"
meas_value = 0.0538

[[record]]
molecule = "COc1cccc(OCCCN)c1-c1cc(Nc2cnc(C#N)cn2)n[nH]1 [Prexasertib] + Cc1cc2ncnn2cc1Nc1ncc2c(n1)n(C1CCOCC1)c(=O)n2C [AZD7648] (first compound max 1 µM, 7x7, partner max 10 µM)"
measurement_kind = "combination Emax"
meas_value = 0.966


[ask] Determine its reported combination Emax: NC1(C(=O)N[C@@H](CCO)c2ccc(Cl)cc2)CCN(c2ncnc3[nH]ccc23)CC1 [Capivasertib] + CC(=O)c1c(C)c2cnc(Nc3ccc(N4CCNCC4)cn3)nc2n(C2CCCC2)c1=O [Palbociclib] (first compound max 10 µM, 7x7, partner max 10 µM)
[reply] 0.94

All values here come from the supplement of paper PMC11061612.
